Test system: Escherichia coli TOP10
assay text: shrunken log2 fold change of peptide-encoding DNA abundance (4.5 h post-induction vs induction); higher = less antimicrobial activity (less host growth inhibition)
test settings: time post-induction: 4.5 h; library: site-saturation at positions 5, 18, 19, 20
Recorded measurements of shrunken log2 fold change, one per entry
readout type: shrunken log2 fold change

1) RRIRHRPPRLPRPRPRPDHLPRP | -0.0237
2) RRIRGRPPRLPRPRPRPGSCPRP | 1.03
3) RRIRMRPPRLPRPRPRPRFWPRP | 0.522
4) RRIRMRPPRLPRPRPRPGHKPRP | -0.231
5) RRIRKRPPRLPRPRPRPNEPPRP | 0.027
6) RRIRHRPPRLPRPRPRPNVIPRP | 0.0378
7) RRIRDRPPRLPRPRPRPFFYPRP | -0.0714
8) RRIRDRPPRLPRPRPRPEQEPRP | -0.0197
9) RRIRPRPPRLPRPRPRPEYLPRP | 0.0461
10) RRIRKRPPRLPRPRPRPFCRPRP | 0.558
11) RRIRCRPPRLPRPRPRPHDSPRP | -0.298
12) RRIRFRPPRLPRPRPRPMRCPRP | 0.0196
13) RRIRWRPPRLPRPRPRPMTVPRP | -0.0472
14) RRIRVRPPRLPRPRPRPSQEPRP | -0.549
15) RRIRSRPPRLPRPRPRPAHHPRP | 0.048
16) RRIRVRPPRLPRPRPRPRMKPRP | -0.167
17) RRIRPRPPRLPRPRPRPKDYPRP | -0.0674
18) RRIRERPPRLPRPRPRPAGHPRP | 0.0849
19) RRIRRRPPRLPRPRPRPWSHPRP | -0.121
20) RRIRARPPRLPRPRPRPWWKPRP | -0.00149
21) RRIRWRPPRLPRPRPRPQQIPRP | -0.0385
22) RRIRRRPPRLPRPRPRPFYDPRP | -0.193
23) RRIRKRPPRLPRPRPRPRKDPRP | 0.222
24) RRIRRRPPRLPRPRPRPTYMPRP | -0.242
25) RRIRYRPPRLPRPRPRPTLEPRP | -0.136
26) RRIRNRPPRLPRPRPRPPWNPRP | 0.0711

---

System: Escherichia coli TOP10
assay text: shrunken log2 fold change of peptide-encoding DNA abundance (4.5 h post-induction vs induction); higher = less antimicrobial activity (less host growth inhibition)
test settings: time post-induction: 4.5 h; library: site-saturation at positions 5, 18, 19, 20
Would you please tag the item YES when its shrunken log2 fold change is -0.02 or above, and NO when it is below?

1. RRIRFRPPRLPRPRPRPRKGPRP | YES
2. RRIRFRPPRLPRPRPRPVESPRP | NO
3. RRIRHRPPRLPRPRPRPFSIPRP | NO
4. RRIRFRPPRLPRPRPRPKGTPRP | NO
5. RRIRNRPPRLPRPRPRPDYLPRP | NO
6. RRIRPRPPRLPRPRPRPYIDPRP | NO
7. RRIRFRPPRLPRPRPRPQGLPRP | NO
8. RRIRCRPPRLPRPRPRPQAGPRP | YES
9. RRIRIRPPRLPRPRPRPDPAPRP | YES
10. RRIRIRPPRLPRPRPRPKVLPRP | YES
11. RRIRHRPPRLPRPRPRPPWPPRP | YES
12. RRIRWRPPRLPRPRPRPWCNPRP | NO
13. RRIRGRPPRLPRPRPRPKGSPRP | YES
14. RRIRERPPRLPRPRPRPHDIPRP | YES
15. RRIRTRPPRLPRPRPRPSRGPRP | YES
16. RRIRNRPPRLPRPRPRPYRFPRP | YES
17. RRIRNRPPRLPRPRPRPWRIPRP | YES
18. RRIRDRPPRLPRPRPRPACWPRP | YES
19. RRIRCRPPRLPRPRPRPAFSPRP | NO
20. RRIRCRPPRLPRPRPRPSDVPRP | YES
21. RRIRWRPPRLPRPRPRPYNYPRP | NO
22. RRIRGRPPRLPRPRPRPGCAPRP | YES
23. RRIRDRPPRLPRPRPRPRCGPRP | YES
24. RRIRGRPPRLPRPRPRPWPIPRP | NO
25. RRIRERPPRLPRPRPRPQKNPRP | NO
26. RRIRTRPPRLPRPRPRPNDPPRP | NO
27. RRIRIRPPRLPRPRPRPQTIPRP | NO
28. RRIRSRPPRLPRPRPRPVYCPRP | NO
29. RRIRIRPPRLPRPRPRPAFWPRP | YES
30. RRIRRRPPRLPRPRPRPCLEPRP | YES

---

System: Escherichia coli TOP10
assay text: shrunken log2 fold change of peptide-encoding DNA abundance (4.5 h post-induction vs induction); higher = less antimicrobial activity (less host growth inhibition)
test settings: time post-induction: 4.5 h; library: site-saturation at positions 5, 18, 19, 20
Would you please tag the item y when its shrunken log2 fold change is 0.02 or above, and n when it is below?

1) RRIRRRPPRLPRPRPRPYPCPRP | y
2) RRIRPRPPRLPRPRPRPHNQPRP | n
3) RRIRVRPPRLPRPRPRPRVFPRP | y
4) RRIRCRPPRLPRPRPRPSRNPRP | y
5) RRIRWRPPRLPRPRPRPFAHPRP | n
6) RRIRIRPPRLPRPRPRPKYMPRP | n
7) RRIRNRPPRLPRPRPRPEIKPRP | y
8) RRIRNRPPRLPRPRPRPFMDPRP | y
9) RRIRFRPPRLPRPRPRPQCFPRP | n
10) RRIRQRPPRLPRPRPRPTDGPRP | y

---

System: Escherichia coli TOP10
assay text: shrunken log2 fold change of peptide-encoding DNA abundance (4.5 h post-induction vs induction); higher = less antimicrobial activity (less host growth inhibition)
test settings: time post-induction: 4.5 h; library: site-saturation at positions 5, 18, 19, 20
readout type: shrunken log2 fold change

1. RRIRSRPPRLPRPRPRPFYNPRP | -0.54
2. RRIRNRPPRLPRPRPRPMACPRP | -0.109
3. RRIRYRPPRLPRPRPRPYTMPRP | -0.301
4. RRIRPRPPRLPRPRPRPSTTPRP | -0.326

---

Tested on: Escherichia coli TOP10
assay text: shrunken log2 fold change of peptide-encoding DNA abundance (4.5 h post-induction vs induction); higher = less antimicrobial activity (less host growth inhibition)
test settings: time post-induction: 4.5 h; library: site-saturation at positions 5, 18, 19, 20
Would you please tag the item rule met when its shrunken log2 fold change is 0.1 or above, and rule not met when it is below?

1) RRIRARPPRLPRPRPRPWSAPRP | rule met
2) RRIRGRPPRLPRPRPRPWGPPRP | rule met
3) RRIRNRPPRLPRPRPRPMSNPRP | rule not met
4) RRIRWRPPRLPRPRPRPHRSPRP | rule not met
5) RRIRKRPPRLPRPRPRPKMDPRP | rule met
6) RRIRMRPPRLPRPRPRPRYCPRP | rule not met
7) RRIRLRPPRLPRPRPRPRKRPRP | rule met
8) RRIRHRPPRLPRPRPRPVTRPRP | rule not met

---

System: Escherichia coli TOP10
assay text: shrunken log2 fold change of peptide-encoding DNA abundance (4.5 h post-induction vs induction); higher = less antimicrobial activity (less host growth inhibition)
test settings: time post-induction: 4.5 h; library: site-saturation at positions 5, 18, 19, 20
readout type: shrunken log2 fold change

1) RRIRRRPPRLPRPRPRPVENPRP | 0.0788
2) RRIRQRPPRLPRPRPRPCMKPRP | -0.0118
3) RRIRTRPPRLPRPRPRPAHMPRP | -0.0928
4) RRIRVRPPRLPRPRPRPLMNPRP | -0.649
5) RRIRPRPPRLPRPRPRPWISPRP | -0.161
6) RRIRCRPPRLPRPRPRPQRWPRP | 0.294
7) RRIRWRPPRLPRPRPRPEHCPRP | 0.177

---

Test system: Escherichia coli TOP10;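 also: peptides expressed intracellularly from a pBAD plasmid library in pooled LB shake-flask culture, induced with 0.3% L-arabinose, DNA abundance read by NGS, three biological replicates, DESeq2 with apeglm shrinkage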
assay text: shrunken log2 fold change of peptide-encoding DNA abundance (4.5 h post-induction vs induction); higher = less antimicrobial activity (less host growth inhibition)
test settings: time post-induction: 4.5 h; library: site-saturation at positions 5, 18, 19, 20
Recorded measurements of shrunken log2 fold change, one per entry
readout type: shrunken log2 fold change

1. RRIRIRPPRLPRPRPRPSLDPRP | -0.564
2. RRIRRRPPRLPRPRPRPDFDPRP | 0.291
3. RRIRPRPPRLPRPRPRPITQPRP | -0.194
4. RRIRYRPPRLPRPRPRPNQPPRP | -0.0705
5. RRIRNRPPRLPRPRPRPIDSPRP | -0.0173
6. RRIRLRPPRLPRPRPRPVTNPRP | -0.0302
7. RRIRQRPPRLPRPRPRPNVDPRP | -0.0229
8. RRIRKRPPRLPRPRPRPDSHPRP | -0.427
9. RRIRHRPPRLPRPRPRPMHNPRP | 0.708
10. RRIRVRPPRLPRPRPRPHMQPRP | 0.0906
11. RRIRHRPPRLPRPRPRPFYTPRP | -1.02
12. RRIRDRPPRLPRPRPRPVYWPRP | -0.469
13. RRIRERPPRLPRPRPRPGMTPRP | -0.324
14. RRIRMRPPRLPRPRPRPYSSPRP | -0.115
15. RRIRARPPRLPRPRPRPDLSPRP | 0.209
16. RRIRPRPPRLPRPRPRPCTNPRP | -0.0219
17. RRIRMRPPRLPRPRPRPTTLPRP | 0.34
18. RRIRSRPPRLPRPRPRPSIWPRP | 0.266
19. RRIRMRPPRLPRPRPRPDVNPRP | 0.0361
20. RRIRFRPPRLPRPRPRPGMKPRP | -0.0551
21. RRIRGRPPRLPRPRPRPHHCPRP | -0.118
22. RRIRPRPPRLPRPRPRPGVCPRP | 0.428
23. RRIRQRPPRLPRPRPRPTQHPRP | 0.195
24. RRIRARPPRLPRPRPRPSMAPRP | 0.333
25. RRIRTRPPRLPRPRPRPMRHPRP | 0.00372
26. RRIRMRPPRLPRPRPRPARQPRP | 0.825
27. RRIRKRPPRLPRPRPRPWVYPRP | 0.107
28. RRIRQRPPRLPRPRPRPFTIPRP | 0.0944

Data credit: the supplement of paper PMC9112550
